Each entry below carries its recorded pIC50.
# System: HFF (human foreskin fibroblasts) normal cells
# test.summary: MTT cytotoxicity assay, HFF normal cells
# Assay type: cell-based
# measurement.parameters: Fibroblast, 48 h incubation
Keep in mind that pIC50 stands for -log10 of concentration in molar terms.

As a guide, the following entries are already answered.
O=C1C(=O)N(CN2CCN(c3cnc4ccccc4n3)CC2)c2ccc(Cl)cc21 [2c] : 4.09
Cc1ccc2c(c1)/C(=N\C(=N)NC(=N)N(C)C)C(=O)N2CN1CCN(c2cnc3ccccc3n2)CC1 [4d] : 5.00

Next:
**Q:** Can you share its pIC50? I mean this molecule: Cc1ccc2c(c1)C(=O)C(=O)N2CN1CCN(c2cnc3ccccc3n2)CC1 [2d]
**A:** 4.24

* * *

# System: HFF (human foreskin fibroblasts) normal cells
# test.summary: MTT cytotoxicity assay, HFF normal cells
# Format: cell-based
# measurement.parameters: Fibroblast, 48 h incubation
Each entry below carries its recorded pIC50.
Keep in mind that pIC50 stands for -log10 of concentration in molar terms.

As a guide, the following entries are already answered.
Cc1ccc2c(c1)C(=NNC(N)=O)C(=O)N2CN1CCN(c2cnc3ccccc3n2)CC1 : 4.64
NC(=S)N/N=C1/C(=O)N(CN2CCN(c3cnc4ccccc4n3)CC2)c2ccccc21 : 4.61

**Q:** Can you share its pIC50? I mean this compound: NC(=S)N/N=C1/C(=O)N(CN2CCN(c3cnc4ccccc4n3)CC2)c2ccc(Br)cc21
**A:** 4.30

**Q:** Can you share its pIC50? I mean this compound: NC(=O)NN=C1C(=O)N(CN2CCN(c3cnc4ccccc4n3)CC2)c2ccccc21
**A:** 4.87

**Q:** Can you share its pIC50? I mean this compound: Cc1ccc2c(c1)/C(=N\NC(N)=S)C(=O)N2CN1CCN(c2cnc3ccccc3n2)CC1
**A:** 4.58

* * *

# Tested on: HFF (human foreskin fibroblasts) normal cells
# test.summary: MTT cytotoxicity assay, HFF normal cells
# Format: cell-based
# measurement.parameters: Fibroblast, 48 h incubation
Each entry below carries its recorded pIC50.
Keep in mind that pIC50 stands for -log10 of concentration in molar terms.

NC(=O)N/N=C1/C(=O)N(CN2CCN(c3cnc4ccccc4n3)CC2)c2ccc(Br)cc21 [3c] : 4.44

**Q:** Can you share its pIC50? I mean this compound: NC(=S)N/N=C1/C(=O)N(CN2CCN(c3cnc4ccccc4n3)CC2)c2ccc(Cl)cc21 [3f]
**A:** 4.24

**Q:** Can you share its pIC50? I mean this compound: CN(C)C(=N)NC(=N)/N=C1/C(=O)N(CN2CCN(c3cnc4ccccc4n3)CC2)c2ccc(Br)cc21 [4b]
**A:** 5.16

* * *

# Test system: HFF (human foreskin fibroblasts) normal cells
# test.summary: MTT cytotoxicity assay, HFF normal cells
# Type: cell-based
# measurement.parameters: Fibroblast, 48 h incubation
endpoint.name: pIC50
Keep in mind that pIC50 stands for -log10 of concentration in molar terms.

O=C1C(=O)N(CN2CCN(c3cnc4ccccc4n3)CC2)c2ccccc21 [2a] : 4.08
CN(C)C(=N)NC(=N)N=C1C(=O)N(CN2CCN(c3cnc4ccccc4n3)CC2)c2ccccc21 [4a] : 5.04
CN(C)C(=N)NC(=N)/N=C1/C(=O)N(CN2CCN(c3cnc4ccccc4n3)CC2)c2ccc(Cl)cc21 [4c] : 5.17
O=C1C(=O)N(CN2CCN(c3cnc4ccccc4n3)CC2)c2ccc(Br)cc21 [2b] : 4.24

Next:
**Q:** Can you share its pIC50? I mean this compound: NC(=O)N/N=C1/C(=O)N(CN2CCN(c3cnc4ccccc4n3)CC2)c2ccc(Cl)cc21 [3e]
**A:** 4.42
